Target: Ybr033w (UniProt P38073)
Sequence: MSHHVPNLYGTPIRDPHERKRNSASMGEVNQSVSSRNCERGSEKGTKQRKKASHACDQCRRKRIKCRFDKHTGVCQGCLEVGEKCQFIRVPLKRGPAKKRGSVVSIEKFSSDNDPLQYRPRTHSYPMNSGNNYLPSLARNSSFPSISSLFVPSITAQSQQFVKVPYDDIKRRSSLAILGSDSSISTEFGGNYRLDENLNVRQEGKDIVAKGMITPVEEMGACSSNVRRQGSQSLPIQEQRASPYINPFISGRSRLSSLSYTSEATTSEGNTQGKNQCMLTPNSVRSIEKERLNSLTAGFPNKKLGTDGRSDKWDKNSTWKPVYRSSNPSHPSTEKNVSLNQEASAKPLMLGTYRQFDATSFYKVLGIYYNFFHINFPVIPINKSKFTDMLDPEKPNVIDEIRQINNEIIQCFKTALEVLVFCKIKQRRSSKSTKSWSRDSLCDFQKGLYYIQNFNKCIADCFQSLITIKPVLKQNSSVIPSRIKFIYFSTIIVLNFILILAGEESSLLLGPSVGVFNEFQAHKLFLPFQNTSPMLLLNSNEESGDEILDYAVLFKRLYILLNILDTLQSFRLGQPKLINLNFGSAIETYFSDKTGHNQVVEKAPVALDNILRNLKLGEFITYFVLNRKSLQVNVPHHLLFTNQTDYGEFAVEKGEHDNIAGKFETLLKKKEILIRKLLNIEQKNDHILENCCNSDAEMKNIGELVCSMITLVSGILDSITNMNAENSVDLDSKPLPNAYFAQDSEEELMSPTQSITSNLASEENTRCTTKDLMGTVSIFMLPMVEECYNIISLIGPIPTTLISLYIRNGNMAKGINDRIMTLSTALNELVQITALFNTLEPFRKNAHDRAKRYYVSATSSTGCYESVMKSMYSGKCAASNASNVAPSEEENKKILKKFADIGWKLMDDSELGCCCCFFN
Assay: PBM E-score (8-mer binding enrichment) (E-score (-0.5 to 0.5)); higher = stronger / more preferred TF binding
Settings: protein concentration: 200 nM; construct: GST-full length
Whole data set: some 33,000 sequences, median “E-score (-0.5 to 0.5)” near -0.012, cut for the highest 2% near 0.29. Many of the other results were omitted from the sample, so the highest values are more common in it than they were.
Reported PBM E-score is given for each of the following sequences.
test readout: PBM E-score

| sequence entry | value measured |
| --- | --- |
| GGAGCGCC | -0.27 |
| GACTTATA | 0.293 |
| ATACAAAC | 0.306 |
| CAACTATG | 0.102 |
| CAGGTAGA | -0.138 |
| GTATAAAC | 0.158 |
| CTACAAAA | 0.00298 |
| AAAGTACT | 0.177 |
| GAAATTGA | 0.289 |
| AGATAAAC | 0.216 |
| TCAGAAAA | 0.0198 |
| AAGCAACC | 0.0073 |
| ATAGATAA | 0.28 |
| AGTTGGAG | -0.0321 |
| CTGGAACC | -0.209 |
| ACAGAGTC | -0.176 |
| AAAATTAG | 0.179 |
| TAAATTGA | 0.265 |
| CTGGAACA | 0.31 |
| CGCGAAGC | 0.0254 |
| AGATAAAA | 0.286 |
| GAAGATAC | 0.17 |
| TAACGATA | 0.292 |
| AACAAGTG | 0.127 |
| CGATAAAA | 0.14 |
| ATAGTAGC | 0.16 |
| AAATAATC | 0.341 |
| GTATAAAA | 0.289 |
| CAGCAGAC | -0.106 |
| ATGTTCCA | 0.332 |
| AAAGATCC | 0.3 |
| CTGTCTCC | 0.00722 |
| AACAAGGA | 0.12 |
| ATGGAATC | 0.198 |
| AAACGATA | 0.213 |
| GTAGATAA | 0.333 |
| GGATAACA | 0.0661 |
| ATTCACAA | 0.294 |
| TCGGGAAA | 0.253 |
| AAACGCAG | -0.0761 |
| AACTGCTT | 0.0101 |
| ATACAAAG | 0.298 |
| CACTGATC | 0.0744 |
| AGAGTCTA | -0.16 |
| GTGTTCCA | -0.0466 |
| ACATAATC | 0.205 |
| GGATAAAA | 0.397 |
| AATCACCG | -0.0481 |
| TCGGAAAA | 0.424 |
| TCCCTAAA | 0.0945 |
| AGCCCTCG | -0.314 |
| GAAATTGC | 0.0471 |
| AATCACCA | 0.295 |
| CAATAAAA | 0.225 |
| AAAAATTT | 0.283 |
| AAGTTAGA | 0.235 |
| AGCACTAT | 0.0398 |
| GGATAAGA | -0.0485 |
| AATCTAGT | 0.214 |
| AAGTTGAG | 0.0874 |
| GGCTTCGA | -0.138 |
| AGCCTATA | 0.0186 |
| ATTAACGG | 0.159 |
| GTGGAATA | 0.262 |
| CTGTTCCA | 0.0353 |
| CTTCGTAC | -0.103 |
| TTACAAAA | 0.268 |
| AGCACAGC | 0.0732 |
| AAAGATAG | -0.0366 |
| CAATAAGC | 0.0395 |

Just for reference, the supplement of paper PMC3334620 is where these values come from.
